These measurements were taken from patent US12583858B2.

# Study system: TDO2 (Homo sapiens)
# Construct: decreased levels of NFK in SW48 cells (high TDO expressing cells)
# Measurement description: TDO2 cell assay (NFK GreenScreen, SW48 cells)
# Format: cell-based
# Test context: SW48 cells (high TDO expressing), 200 uM tryptophan, 24 hours; Table 3; read-out: TDO2 Cell Fluor EC50
Property: EC50 (µM)

Solved cases (5 shown):
compound="Cn1ncc2c1CCC(C1c3ccccc3-c3cncn31)C2O (single isomer, unassigned) [Example 93a]" unit_abbrev=µM measured_value=0.38
compound="OC1COCC1C1c2ccccc2-c2cncn21 (single isomer, unassigned) [Example 26b]" unit_abbrev=µM measured_value=0.23
compound="OC1CCCCC1C1c2ccccc2-c2cncn21 (single isomer, unassigned) [Example 03e]" unit_abbrev=µM measured_value=16
compound="O=S1(=O)CC(O)C(C2c3ccccc3-c3cncn32)C1 (single isomer, unassigned) [Example 38a]" unit_abbrev=µM measured_value=16
compound="Cc1ccc2c(c1)-c1cncn1C2C1COCC1O (single isomer, unassigned) [Example 171a]" unit_abbrev=µM measured_value=0.999

[P] Nc1ccc2c(n1)CCC(C1c3ccccc3-c3cncn31)C2O (single isomer, unassigned) [Example 121f]
[Q] O[C@@H]1[C@@H]([C@H]2c3ccccc3-c3cncn32)CCCC1(F)F (single isomer, unassigned) [Example 106d]
Prompt: Out of P and Q , name the one with the higher EC50. Write down the label attached to your selection.
Response: P
(P: 24 µM, Q: 0.93 µM)

----------
# Study system: TDO2 (Homo sapiens)
# Construct: decreased levels of NFK in SW48 cells (high TDO expressing cells)
# Measurement description: TDO2 cell assay (NFK GreenScreen, SW48 cells)
# Type: cell-based
# Test context: SW48 cells (high TDO expressing), 200 uM tryptophan, 24 hours; Table 3; read-out: TDO2 Cell Fluor EC50
Property: EC50

Documented EC50 of CC(=O)N1CC[C@H](O)[C@@H]([C@H]2c3ccccc3-c3cncn32)C1 (single isomer, unassigned) [Example 12c] : > 25 µM

The value of EC50 measured for the molecule CS(=O)(=O)N1CCC2(CC1)CC(C1c3ccccc3-c3cncn31)C2O (single isomer, unassigned) [Example 179c] turned out to be > 25 µM

Kindly note the recorded EC50 for O[C@H]1COCC[C@@H]1[C@@H]1c2c(F)cccc2-c2cncn21 [Example 120b] , which is > 25 µM

----------
In this section, each of the molecules is paired with its reported pEC50.
# Study system: TDO2 (Homo sapiens, UniProt P48775)
# Construct: decreased levels of NFK in SW48 cells (high TDO expressing cells)
# Sequence (P48775 whole entry): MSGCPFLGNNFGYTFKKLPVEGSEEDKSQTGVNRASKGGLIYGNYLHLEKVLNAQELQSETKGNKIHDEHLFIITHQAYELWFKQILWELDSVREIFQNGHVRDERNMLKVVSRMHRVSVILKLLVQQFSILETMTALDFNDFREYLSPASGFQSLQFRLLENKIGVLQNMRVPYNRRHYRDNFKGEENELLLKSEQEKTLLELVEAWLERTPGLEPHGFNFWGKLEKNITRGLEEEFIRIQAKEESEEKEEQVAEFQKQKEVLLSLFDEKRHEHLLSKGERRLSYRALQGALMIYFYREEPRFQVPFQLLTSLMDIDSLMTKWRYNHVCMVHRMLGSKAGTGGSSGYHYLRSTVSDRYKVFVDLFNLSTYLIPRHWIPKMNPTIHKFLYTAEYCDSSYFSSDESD
# Measurement description: TDO2 cell assay (NFK GreenScreen, SW48 cells)
# Assay type: cell-based
# Test context: SW48 cells (high TDO expressing), 200 uM tryptophan, 24 hours; Table 3; read-out: TDO2 Cell Fluor EC50
pEC50: −log10 of the molar value.

molecule="OC1c2cncn2CCC1C1c2ccccc2-c2cncn21 (single isomer, unassigned) [Example 07b]" measured_value="< 4.60"
molecule="OC1COCCC1C1c2cc(F)ccc2-c2cncn21 (single isomer, unassigned) [Example 75-1d]" measured_value="< 4.60"
molecule="Cn1cc2c(n1)C(O)C(C1c3ccccc3-c3cncn31)CC2 (single isomer, unassigned) [Example 139-1e]" measured_value="< 4.60"
molecule="Cn1cc2c(n1)CCC(C1c3ccccc3-c3cncn31)C2O (single isomer, unassigned) [Example 130h]" measured_value="< 4.60"
molecule="OCC(O)C1c2ccccc2-c2cncn21 (single isomer, unassigned) [Example 49c]" measured_value="< 4.60"

Given item Cn1cc2c(n1)C(O)C(C1c3ccccc3-c3cncn31)CC2 (single isomer, unassigned) [Example 139-1b] , the value recorded as its pEC50 is < 4.60

pEC50 reported for this molecule OC1C(C2c3ccccc3-c3cncn32)CCC12CCOCC2 (single isomer, unassigned) [Example 68d] : < 4.60

----------
# Study system: TDO2 (Homo sapiens, UniProt P48775)
# Construct: decreased levels of NFK in SW48 cells (high TDO expressing cells)
# Measurement description: TDO2 cell assay (NFK GreenScreen, SW48 cells)
# Assay type: cell-based
# Test context: SW48 cells (high TDO expressing), 200 uM tryptophan, 24 hours; Table 3; read-out: TDO2 Cell Fluor EC50
pEC50: −log10 of the molar value.
Property: pEC50

For orientation, consider the following solved cases.
molecule="OC1CCCOCC1C1c2ccccc2-c2cncn21 (single isomer, unassigned) [Example 86g]" study_system="TDO2 (Homo sapiens, UniProt P48775)" property=pEC50 measured_value=6.08
molecule="CCS(=O)(=O)N1CC[C@H]([C@H]2c3ccccc3-c3cncn32)[C@@H](O)C1 [Example 16c]" study_system="TDO2 (Homo sapiens, UniProt P48775)" property=pEC50 measured_value=5.24
molecule="OC1COCC1C1c2ccc(F)cc2-c2cncn21 (single isomer, unassigned) [Example 30b]" study_system="TDO2 (Homo sapiens, UniProt P48775)" property=pEC50 measured_value=4.82

[I] N#Cc1cnc2c(c1)CCC(C1c3ccccc3-c3cncn31)C2O (single isomer, unassigned) [Example 107a]
[II] N#Cc1ccc2c(c1)CCC(C1c3ccccc3-c3cncn31)C2O (single isomer, unassigned) [Example 62c]
[III] OC1CC2(CCC2)C1C1c2ccccc2-c2cncn21 (single isomer, unassigned) [Example 67a]
Prompt: Give the ascending ranking of the items by reported pEC50. Reply: labels, ordered per the request.
Response: I, II, III
(I: 4.77, II: 5.18, III: 5.92)

----------
# Study system: TDO2 (Homo sapiens, UniProt P48775)
# Construct: decreased levels of NFK in SW48 cells (high TDO expressing cells)
# Measurement description: TDO2 cell assay (NFK GreenScreen, SW48 cells)
# Format: cell-based
# Test context: SW48 cells (high TDO expressing), 200 uM tryptophan, 24 hours; Table 3; read-out: TDO2 Cell Fluor EC50
pEC50: −log10 of the molar value.
Property: pEC50

The following compounds have reported results that may help.
compound="O[C@@H](C1CCCCC1)[C@@H]1c2ccccc2-c2cncn21 (single isomer, unassigned) [Example 148c]" study_system="TDO2 (Homo sapiens, UniProt P48775)" measured_value=6.06
compound="Cn1cc2c(n1)CCC(C1c3ccccc3-c3cncn31)C2O (single isomer, unassigned) [Example 130b]" study_system="TDO2 (Homo sapiens, UniProt P48775)" measured_value=6.19
compound="O[C@@H]1c2ccncc2CC[C@@H]1[C@@H]1c2ccccc2-c2cncn21 (single isomer, unassigned) [Example 08g]" study_system="TDO2 (Homo sapiens, UniProt P48775)" measured_value=5.08
compound="OCC(O)C1c2ccccc2-c2cncn21 (single isomer, unassigned) [Example 49b]" study_system="TDO2 (Homo sapiens, UniProt P48775)" measured_value=4.71
compound="OC1c2cnccc2CC1C1c2ccccc2-c2cncn21 (single isomer, unassigned) [Example 71b]" study_system="TDO2 (Homo sapiens, UniProt P48775)" measured_value=6.20

[P] N#Cc1ccc2c(c1)C(O)C(C1c3ccccc3-c3cncn31)CC2 (single isomer, unassigned) [Example 113b]
[Q] O[C@@H]1CC[C@H]1[C@H]1c2ccccc2-c2cncn21 [Example 01d]
Prompt: So which one has the bigger pEC50 here, P or Q ? Please identify the chosen entry by its label.
Response: Q
(Q: 7.43, P: 5.30)

[1] OC1CC(CF)(CF)C1C1c2ccccc2-c2cncn21 (single isomer, unassigned) [Example 150e]
[2] CS(=O)(=O)N1CCC(O)C(C2c3ccccc3-c3cncn32)CC1 (single isomer, unassigned) [Example 92b]
[3] O=S(=O)(C1CC1)N1CCC(C2c3ccccc3-c3cncn32)C(O)C1 (mixture of isomers) [Example 77b]
[4] O[C@H]1c2cnccc2CC[C@@H]1[C@@H]1c2ccccc2-c2cncn21 (single isomer, unassigned) [Example 04g]
Prompt: Put the items in sequence by pEC50, from largest down. Reply: labels, ordered per the request.
Response: 1, 3, 2, 4
(1: 7.28, 3: 7.07, 2: 5.07, 4: 4.72)

[I] NC(=O)c1ccc2c(c1)CC[C@@H]([C@H]1c3ccccc3-c3cncn31)[C@H]2O [Example 60f]
[II] NC(=O)c1ccc2c(c1)CCC(C1c3ccccc3-c3cncn31)C2O (single isomer, unassigned) [Example 60a]
Prompt: I need your help: which of the pair I , II has higher pEC50? Indicate which entry you chose by stating its label.
Response: I
(I: 7.24, II: 6.32)

[A] CC1(C)CCC(C2c3ccccc3-c3cncn32)C1O (single isomer, unassigned) [Example 23d]
[B] CC1(O)CCOCC1C1c2ccccc2-c2cncn21 (single isomer, unassigned) [Example 61d]
Prompt: Determine, for A and B , which has the greater value of pEC50. Answer by stating the label of the chosen item.
Response: A
(A: 6.96, B: 4.68)
